All values here come from ChEMBL document CHEMBL5523727.

half-life overview
- EXPERIMENT_DESCRIPTION: Half life in Non human primate plasma
- Type: ADME, cell-free
- MEASUREMENT_CONTEXT: primates
Express the result in h but write the number alone.

Which half-life reading was recorded for the compound CC(C)(O)c1cc2nc([C@H]3CC[C@H](CN4CC5(CC(CCNc6cccc7c6C(=O)N([C@H]6CCC(=O)NC6=O)C7=O)C5)C4)CC3)sc2cc1NC(=O)c1cccc(C(F)(F)F)n1 ? 3.35

Further cases:
Which half-life reading was recorded for the compound CC(C)(O)c1cc2nc([C@H]3CC[C@H](CN4CC5(CC(CCNc6cccc7c6C(=O)N([C@@H]6CCC(=O)NC6=O)C7=O)C5)C4)CC3)sc2cc1NC(=O)c1cccc(C(F)(F)F)n1 ? 3.03

---

- EXPERIMENT_DESCRIPTION: Metabolic stability in Non human primate liver microsomes assessed as intrinsic clearance
- Type: ADME, Microsome
- MEASUREMENT_CONTEXT: primates, read-out: CLH
OBSERVABLE: microsomal CLint (µL/min/mg)
Express the result in µL/min/mg but write the number alone.

Which microsomal CLint reading was recorded for the molecule CC(C)(O)c1cc2nc([C@H]3CC[C@H](CN4CC5(CC(CCNc6cccc7c6C(=O)N(C6CCC(=O)NC6=O)C7=O)C5)C4)CC3)sc2cc1NC(=O)c1cccc(C(F)(F)F)n1 (stereo partly specified) [ZOMIRADOMIDE] ? 8.6

---

- EXPERIMENT_DESCRIPTION: Clearance in rat at 2 mg/kg, iv by LC-MS/MS analysis
- Assay type: ADME, organism-based
- MEASUREMENT_CONTEXT: in vivo
OBSERVABLE: clearance (mL/min/kg)
Express the result in mL/min/kg but write the number alone.

Sample records with clearance:
Which clearance reading was recorded for the molecule CC(C)(O)c1cc2nn([C@H]3CC[C@H](CN4CCC5(CC4)CC(Nc4cccc6c4C(=O)N(C4CCC(=O)NC4=O)C6=O)C5)CC3)cc2cc1NC(=O)c1cccc(C(F)(F)F)n1 (stereo partly drawn) ? 13

Quick one: COc1cc2nc([C@H]3CC[C@H](CN4CC5(CC(CCNc6cccc7c6C(=O)N(C6CCC(=O)NC6=O)C7=O)C5)C4)CC3)oc2cc1NC(=O)c1cccc(C(F)(F)F)n1 (stereo partly drawn) 9.4

Turning now to a further record.
Which clearance reading was recorded for the molecule COc1cc2nc([C@H]3CC[C@H](CN4CC5(CC(CCNc6cccc7c6C(=O)N(C6CCC(=O)NC6=O)C7=O)C5)C4)CC3)sc2cc1NC(=O)c1cccc(C(F)(F)F)n1 (stereo partly drawn) ? 4.8

---

DC50 overview
- SYSTEM_NAME: Protein cereblon/Interleukin-1 receptor-associated kinase 4 (Homo sapiens, UniProt Q9NWZ3+Q96SW2)
- Sequence (Q9NWZ3 whole entry): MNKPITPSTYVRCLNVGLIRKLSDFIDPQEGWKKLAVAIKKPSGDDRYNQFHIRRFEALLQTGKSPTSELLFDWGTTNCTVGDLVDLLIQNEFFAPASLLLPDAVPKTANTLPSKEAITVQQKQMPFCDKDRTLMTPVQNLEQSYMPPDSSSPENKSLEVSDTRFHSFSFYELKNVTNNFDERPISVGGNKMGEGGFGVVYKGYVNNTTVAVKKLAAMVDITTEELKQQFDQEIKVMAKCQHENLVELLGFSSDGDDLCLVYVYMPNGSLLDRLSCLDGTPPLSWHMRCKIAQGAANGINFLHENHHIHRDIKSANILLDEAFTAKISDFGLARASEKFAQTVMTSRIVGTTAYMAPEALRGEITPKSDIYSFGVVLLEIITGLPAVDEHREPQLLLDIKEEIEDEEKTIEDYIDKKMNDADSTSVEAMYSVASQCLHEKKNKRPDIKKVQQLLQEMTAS
- Sequence (Q96SW2 whole entry): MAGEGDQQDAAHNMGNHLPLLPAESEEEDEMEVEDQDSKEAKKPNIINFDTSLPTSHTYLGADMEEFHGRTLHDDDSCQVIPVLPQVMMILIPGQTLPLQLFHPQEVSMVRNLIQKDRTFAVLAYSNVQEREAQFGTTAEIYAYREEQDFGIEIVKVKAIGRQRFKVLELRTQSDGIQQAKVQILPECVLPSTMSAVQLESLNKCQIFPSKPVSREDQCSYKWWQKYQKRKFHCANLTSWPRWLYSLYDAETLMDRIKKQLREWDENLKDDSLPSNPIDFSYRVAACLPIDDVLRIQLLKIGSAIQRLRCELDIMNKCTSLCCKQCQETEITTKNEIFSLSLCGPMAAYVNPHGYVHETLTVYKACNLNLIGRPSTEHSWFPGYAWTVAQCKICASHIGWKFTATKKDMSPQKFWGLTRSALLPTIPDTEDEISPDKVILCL
- EXPERIMENT_DESCRIPTION: PROTAC activity at CRBN/IRAK4 in human OCI-Ly10 cells assessed as induction of IRAK4 degradation measured after 24 hrs by MSD assay
- Assay type: cell-based
Express the result in nM but write the number alone.

Which DC50 reading was recorded for the compound CC(C)(O)c1cc2nc([C@H]3CC[C@H](CN4CC5(CC(CCNc6cccc7c6C(=O)N(C6CCC(=O)NC6=O)C7=O)C5)C4)CC3)sc2cc1NC(=O)c1cccc(C(F)(F)F)n1 (stereo not given in full) [ZOMIRADOMIDE] ? 6

Quick one: COc1cc2nn([C@H]3CC[C@H](CN4CCC5(CC4)CC(CNc4cccc6c4C(=O)N(C4CCC(=O)NC4=O)C6=O)C5)CC3)cc2cc1NC(=O)c1cccc(C(F)(F)F)n1 (stereo not given in full) 16

Quick one: CC(C)(O)c1cc2nn([C@H]3CC[C@H](CN4CCC5(CC4)CC(Nc4cccc6c4C(=O)N(C4CCC(=O)NC4=O)C6=O)C5)CC3)cc2cc1NC(=O)c1cccc(C(F)(F)F)n1 (stereo not given in full) 3

Quick one: CN(CCCCc1cccc2c1C(=O)N(C1CCC(=O)NC1=O)C2=O)C[C@H]1CC[C@H](n2cc3cc(NC(=O)c4cccc(C(F)(F)F)n4)c(C(C)(C)O)cc3n2)CC1 (stereo not given in full) 20

Turning now to a further record.
Which DC50 reading was recorded for the compound CC(C)(O)c1cc2nc([C@H]3CC[C@H](CN4CC5(CC(CCNc6cccc7c6C(=O)N([C@@H]6CCC(=O)NC6=O)C7=O)C5)C4)CC3)sc2cc1NC(=O)c1cccc(C(F)(F)F)n1 ? 19

---

- EXPERIMENT_DESCRIPTION: Volume of distribution at steady state in rat at 2 mg/kg, iv by LC-MS/MS analysis
- Type: ADME, organism-based
- MEASUREMENT_CONTEXT: in vivo, read-out: Vdss
OBSERVABLE: Vd (L/kg)
Express the result in L/kg but write the number alone.

Sample records with Vd:
Which Vd reading was recorded for the compound O=C1CCC(N2C(=O)c3cccc(NCC4CC5(CCN(C[C@H]6CC[C@H](n7cc8cc(NC(=O)c9cccc(C(F)(F)F)n9)c(C(F)F)cc8n7)CC6)CC5)C4)c3C2=O)C(=O)N1 (some centres undefined) ? 11

Quick one: COc1cc2nc([C@H]3CC[C@H](CN4CC5(CC(CCNc6cccc7c6C(=O)N(C6CCC(=O)NC6=O)C7=O)C5)C4)CC3)cn2cc1NC(=O)c1cccc(C(F)(F)F)n1 (some centres undefined) 43

Quick one: COc1cc2nn([C@H]3CC[C@H](CN4CCC5(CC4)CC(CNc4cccc6c4C(=O)N(C4CCC(=O)NC4=O)C6=O)C5)CC3)cc2cc1NC(=O)c1cccc(C(F)(F)F)n1 (some centres undefined) 11

Turning now to a further record.
Which Vd reading was recorded for the compound CN(CCCO[C@H]1C[C@H](Nc2cccc3c2C(=O)N(C2CCC(=O)NC2=O)C3=O)C1)C[C@H]1CC[C@H](n2cc3cc(NC(=O)c4cccc(C(F)(F)F)n4)c(C(C)(C)O)cc3n2)CC1 (some centres undefined) ? 9.5

---

- EXPERIMENT_DESCRIPTION: Oral bioavailability in mouse at 10 mg/kg by LC-MS/MS analysis
- Format: ADME, organism-based
- MEASUREMENT_CONTEXT: in vivo
OBSERVABLE: bioavailability (%)
Express the result in % but write the number alone.

Which bioavailability reading was recorded for the compound CC(C)(O)c1cc2nc([C@H]3CC[C@H](CN4CC5(CC(CCNc6cccc7c6C(=O)N(C6CCC(=O)NC6=O)C7=O)C5)C4)CC3)sc2cc1NC(=O)c1cccc(C(F)(F)F)n1 (stereo partly specified) [ZOMIRADOMIDE] ? 19

---

- EXPERIMENT_DESCRIPTION: AUC in mouse at 10 mg/kg, po by LC-MS/MS analysis
- Assay type: ADME, organism-based
- MEASUREMENT_CONTEXT: in vivo
OBSERVABLE: AUC (µM·h)
Express the result in µM·h but write the number alone.

Which AUC reading was recorded for the compound CC(C)(O)c1cc2nc([C@H]3CC[C@H](CN4CC5(CC(CCNc6cccc7c6C(=O)N(C6CCC(=O)NC6=O)C7=O)C5)C4)CC3)sc2cc1NC(=O)c1cccc(C(F)(F)F)n1 (stereo partly specified) [ZOMIRADOMIDE] ? 2.8

---

- EXPERIMENT_DESCRIPTION: AUC in rat at 5 mg/kg, po by LC-MS/MS analysis
- Assay type: ADME, organism-based
- MEASUREMENT_CONTEXT: in vivo
AUC overview
Express the result in nM·h but write the number alone.

Which AUC reading was recorded for the compound CC(C)(O)c1cc2nn([C@H]3CC[C@H](CN4CCC5(CC4)CC(CNc4cccc6c4C(=O)N(C4CCC(=O)NC4=O)C6=O)C5)CC3)cc2cc1NC(=O)c1cccc(C(F)(F)F)n1 (some centres not stated) ? 60

Turning now to a further record.
Which AUC reading was recorded for the compound COc1cc2nc([C@H]3CC[C@H](CN4CC5(CC(CCNc6cccc7c6C(=O)N(C6CCC(=O)NC6=O)C7=O)C5)C4)CC3)sc2cc1NC(=O)c1cccc(C(F)(F)F)n1 (some centres not stated) ? 2500

---

IC50 overview
- SYSTEM_NAME: Protein cereblon (Homo sapiens)
- Sequence (Q96SW2 whole entry): as above
- EXPERIMENT_DESCRIPTION: Binding affinity to CRBN (unknown origin) by HTRF assay
Express the result in nM but write the number alone.

Which IC50 reading was recorded for the compound CN(CCCN(C)c1cccc2c1C(=O)N(C1CCC(=O)NC1=O)C2=O)C[C@H]1CC[C@H](n2cc3cc(NC(=O)c4cccc(C(F)(F)F)n4)c(C(C)(C)O)cc3n2)CC1 (stereo partly specified) ? 200

Quick one: O=C1CCC(N2C(=O)c3cccc(NCC4CC5(CCN(C[C@H]6CC[C@H](n7cc8cc(NC(=O)c9cccc(C(F)(F)F)n9)c(C(F)F)cc8n7)CC6)CC5)C4)c3C2=O)C(=O)N1 (stereo partly specified) 58

Quick one: CN(CCCO[C@H]1C[C@H](Nc2cccc3c2C(=O)N(C2CCC(=O)NC2=O)C3=O)C1)C[C@H]1CC[C@H](n2cc3cc(NC(=O)c4cccc(C(F)(F)F)n4)c(C(C)(C)O)cc3n2)CC1 (stereo partly specified) 21

Quick one: CN(C[C@H]1CC[C@H](n2cc3cc(NC(=O)c4cccc(C(F)(F)F)n4)c(C(C)(C)O)cc3n2)CC1)[C@H]1CC[C@]2(CC1)C[C@H](Nc1cccc3c1C(=O)N(C1CCC(=O)NC1=O)C3=O)C2 (stereo partly specified) 8

Quick one: CN(CCCO[C@H]1C[C@H](Nc2cccc3c2C(=O)N(C2CCC(=O)NC2=O)C3=O)C1)C[C@H]1CC[C@H](n2cc3cc(NC(=O)c4cccc(C(F)(F)F)n4)c(C(F)F)cc3n2)CC1 (stereo partly specified) 24

Further cases:
Which IC50 reading was recorded for the compound CC(C)(O)c1cc2nc([C@H]3CC[C@H](CN4CC5(CC(CCNc6cccc7c6C(=O)N([C@@H]6CCC(=O)NC6=O)C7=O)C5)C4)CC3)sc2cc1NC(=O)c1cccc(C(F)(F)F)n1 ? 110

Quick one: COc1cc2nn([C@H]3CC[C@H](CN4CCC5(CC4)CC(CNc4cccc6c4C(=O)N(C4CCC(=O)NC4=O)C6=O)C5)CC3)cc2cc1NC(=O)c1cccc(C(F)(F)F)n1 (stereo partly specified) 66

Quick one: CC(C)(O)c1cc2nn([C@H]3CC[C@H](CN4CCC5(CC4)CC(CNc4cccc6c4C(=O)N(C4CCC(=O)NC4=O)C6=O)C5)CC3)cc2cc1NC(=O)c1cccc(C(F)(F)F)n1 (stereo partly specified) 44

Quick one: CC(C)(O)c1cc2nn([C@H]3CC[C@H](CN4CCC5(CC4)CC(Nc4cccc6c4C(=O)N(C4CCC(=O)NC4=O)C6=O)C5)CC3)cc2cc1NC(=O)c1cccc(C(F)(F)F)n1 (stereo partly specified) 10

Quick one: CC(C)(O)c1cc2nn(CCCCCNCCCNc3cccc4c3C(=O)N(C3CCC(=O)NC3=O)C4=O)cc2cc1NC(=O)c1cccc(C(F)(F)F)n1 (stereo unspecified) 79
